Origin of measurements: the supplement of paper PMC9233669

test system: biotinyl-Trp-oxazolone; test: self-aminoacylation, catalytic enhancement (BWO) (fold over background); higher = more active; k-Seq, kA / k0A0; sequences stand for … in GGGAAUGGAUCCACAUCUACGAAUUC…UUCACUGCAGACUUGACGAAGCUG
Variants at the floor of the assay were thinned out.
Please map values of self-aminoacylation to classes as shown: 1: < 2; 2: ≥ 2 and < 7; 3: ≥ 7

Would you please look over these solved cases?
ACUCACCUAGGACAUCGGGUG [Fam2.2 aminoacylation ribozyme variant] | 2
AUUACCCUGCACAUCGAGUGA [Fam2.1 aminoacylation ribozyme variant] | 3
AAGUUUGCUAACAGUCGCAAU [Fam3.1 aminoacylation ribozyme variant] | 1
AUGCACCUAAGUCAUCGGGUG [Fam2.2 aminoacylation ribozyme variant] | 3
AUUACCCUAGUUAUCGAGUGA [Fam2.1 aminoacylation ribozyme variant] | 3

Quick check: band for GCACACUUCUAGCAAUCGGUC [Fam1B.1 aminoacylation ribozyme variant]
1

One more sequence: CUACUUCAAACAAUCGGUCUG [Fam1A.1 aminoacylation ribozyme variant]
3

One more sequence: AUCACUCUGGUCAUCGAGUGA [Fam2.1 aminoacylation ribozyme variant]
2
